- testConditions: in water, 285.65 K
measurementName: solubility (mole fraction)

structureSmiles	obsValue
Cl.c1ccc([C@H]2CN3CCSC3=N2)cc1	0.0718

---

- testConditions: in DMSO, 308.15 K

structureSmiles	solubility (mole fraction)
Cl.c1ccc([C@H]2CN3CCSC3=N2)cc1	0.0157

---

- testConditions: in n-pentanol, 313.15 K

structureSmiles	solubility (mole fraction)
Cl.c1ccc([C@H]2CN3CCSC3=N2)cc1	0.00471

---

- testConditions: in n-propanol, 308.15 K
measurementName: solubility (mole fraction)

structureSmiles	measurementName	obsValue
Cl.c1ccc([C@H]2CN3CCSC3=N2)cc1	solubility (mole fraction)	0.0109

---

- testConditions: in sec-butanol, 293.15 K
measurementName: solubility (mole fraction)

structureSmiles	measurementName	obsValue
Cl.c1ccc([C@H]2CN3CCSC3=N2)cc1	solubility (mole fraction)	0.000867

---

- testConditions: in sec-butanol, 303.15 K

structureSmiles	solubility (mole fraction)
Cl.c1ccc([C@H]2CN3CCSC3=N2)cc1	0.00123

---

- testConditions: in n-propanol, 303.15 K
measurementName: solubility (mole fraction)

structureSmiles	measurementName	obsValue
Cl.c1ccc([C@H]2CN3CCSC3=N2)cc1	solubility (mole fraction)	0.00903

---

- testConditions: in isobutanol, 298.15 K
measurementName: solubility (mole fraction)

structureSmiles	obsValue
Cl.c1ccc([C@H]2CN3CCSC3=N2)cc1	0.00247

---

- testConditions: in isobutanol, 323.15 K

structureSmiles	solubility (mole fraction)
Cl.c1ccc([C@H]2CN3CCSC3=N2)cc1	0.00937

---

- testConditions: in isopropanol, 313.15 K

structureSmiles	solubility (mole fraction)
Cl.c1ccc([C@H]2CN3CCSC3=N2)cc1	0.00319

---

- testConditions: in n-butanol, 308.15 K

structureSmiles	solubility (mole fraction)
Cl.c1ccc([C@H]2CN3CCSC3=N2)cc1	0.00699

---

- testConditions: in isopropanol, 288.15 K
measurementName: solubility (mole fraction)

structureSmiles	measurementName	obsValue
Cl.c1ccc([C@H]2CN3CCSC3=N2)cc1	solubility (mole fraction)	0.00104

---

- testConditions: in methanol, 298.15 K

structureSmiles	solubility (mole fraction)
Cl.c1ccc([C@H]2CN3CCSC3=N2)cc1	0.0513

---

- testConditions: in n-propanol, 293.15 K
measurementName: solubility (mole fraction)

structureSmiles	obsValue
Cl.c1ccc([C@H]2CN3CCSC3=N2)cc1	0.00631

---

- testConditions: in isopropanol, 323.15 K

structureSmiles	solubility (mole fraction)
Cl.c1ccc([C@H]2CN3CCSC3=N2)cc1	0.00475

---

- testConditions: in ethanol, 323.15 K

structureSmiles	solubility (mole fraction)
Cl.c1ccc([C@H]2CN3CCSC3=N2)cc1	0.0289

---

- testConditions: in water, 308.15 K
measurementName: solubility (mole fraction)

structureSmiles	measurementName	obsValue
Cl.c1ccc([C@H]2CN3CCSC3=N2)cc1	solubility (mole fraction)	0.127

---

- testConditions: in isopropanol, 293.15 K
measurementName: solubility (mole fraction)

structureSmiles	measurementName	obsValue
Cl.c1ccc([C@H]2CN3CCSC3=N2)cc1	solubility (mole fraction)	0.00138

---

- testConditions: in isopropanol, 303.15 K
measurementName: solubility (mole fraction)

structureSmiles	measurementName	obsValue
Cl.c1ccc([C@H]2CN3CCSC3=N2)cc1	solubility (mole fraction)	0.00225

---

- testConditions: in sec-butanol, 323.15 K
measurementName: solubility (mole fraction)

structureSmiles	measurementName	obsValue
Cl.c1ccc([C@H]2CN3CCSC3=N2)cc1	solubility (mole fraction)	0.00252

---

- testConditions: in n-propanol, 288.15 K

structureSmiles	solubility (mole fraction)
Cl.c1ccc([C@H]2CN3CCSC3=N2)cc1	0.00492

---

- testConditions: in DMSO, 328.15 K

structureSmiles	solubility (mole fraction)
Cl.c1ccc([C@H]2CN3CCSC3=N2)cc1	0.0237
